Data provenance: paper PMC9482650

target: TJP2_1, Q9UDY2; assay: holdup assay; design: key: below the threshold = too weak to quantify, mostly under pKd 3.1 to 4; details: plain residues with an end cap or a label only (N-terminal biotin on a linker: ado-ado)
Sequence (Q9UDY2 24-128): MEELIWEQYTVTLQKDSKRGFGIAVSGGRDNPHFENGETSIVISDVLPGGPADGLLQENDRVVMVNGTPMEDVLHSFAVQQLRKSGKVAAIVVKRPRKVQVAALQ
Quantity Name: pKd

- Binder: "EEPEERHTEL [CES2, O00748]"
  Result: "below the threshold"
- Binder: "QKNKDKEYYV [NRXN3_rs746444206, Q9Y4C0]"
  Result: "below the threshold"
- Binder: "FVHPILQSAV [PRKCA, P17252]"
  Result: "below the threshold"
- Binder: "TETASVCTKV [SLC23A1, Q9UHI7]"
  Result: 3.72
- Binder: "GFGEERESIL [KIDINS220, Q9ULH0]"
  Result: "below the threshold"
